target: PDP1_C149 (Homo sapiens); construct: endogenous in cells; host or cells: 22Rv1; assay: IA-DTB cysteine engagement; assay type: binding; conditions: 22Rv1 cells, 20 μM probe, 1 h, relative to DMSO
Sequence (Q9P0J1 72-537): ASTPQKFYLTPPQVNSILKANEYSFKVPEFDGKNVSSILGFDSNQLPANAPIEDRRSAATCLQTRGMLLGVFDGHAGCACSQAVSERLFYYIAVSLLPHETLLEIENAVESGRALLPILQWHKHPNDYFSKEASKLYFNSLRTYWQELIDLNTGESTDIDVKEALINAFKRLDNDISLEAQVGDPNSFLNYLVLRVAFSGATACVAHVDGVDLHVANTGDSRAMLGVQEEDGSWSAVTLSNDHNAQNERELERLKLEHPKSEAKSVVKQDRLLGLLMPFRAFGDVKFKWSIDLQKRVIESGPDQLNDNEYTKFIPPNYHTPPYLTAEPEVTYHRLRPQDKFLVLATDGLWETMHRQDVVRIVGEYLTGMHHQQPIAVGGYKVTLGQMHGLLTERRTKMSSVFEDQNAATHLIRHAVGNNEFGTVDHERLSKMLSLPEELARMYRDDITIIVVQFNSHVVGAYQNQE
Each entry below carries its reported % engagement PDP1_C149.
Reply numerically in %, unit not repeated.

Short answer on PDP1_C149 (Homo sapiens) for "C=CC(=O)N1C[C@H](c2ccc(Br)cc2)[C@@H]1C(=O)Nc1cccc2cccnc12" , % engagement PDP1_C149: 37.25

PDP1_C149 (Homo sapiens) assay, molecule C=CC(=O)N1C[C@H](c2ccc(Br)cc2)[C@H]1C(=O)Nc1cccc2cccnc12 [MY-3A] , recorded % engagement PDP1_C149 = 19.25

Assay PDP1_C149 (Homo sapiens), sample C=CC(=O)N1C[C@H](c2ccc(Br)cc2)[C@H]1C(=O)Nc1cccc2cccnc12 [MY-3B] , % engagement PDP1_C149 read: 37.25

Let us move to another entry and its % engagement PDP1_C149.
# % engagement PDP1_C149 measured on PDP1_C149 (Homo sapiens) for item "C=CC(=O)N1C[C@@H](c2ccc(Br)cc2)[C@H]1C(=O)Nc1cccc2cccnc12" = 67

###

target: ALB_C269 (Homo sapiens); construct: endogenous in cells; host or cells: 22Rv1; assay: IA-DTB cysteine engagement; assay type: binding; conditions: 22Rv1 cells, 20 μM probe, 1 h, relative to DMSO
Sequence (P02768 25-609): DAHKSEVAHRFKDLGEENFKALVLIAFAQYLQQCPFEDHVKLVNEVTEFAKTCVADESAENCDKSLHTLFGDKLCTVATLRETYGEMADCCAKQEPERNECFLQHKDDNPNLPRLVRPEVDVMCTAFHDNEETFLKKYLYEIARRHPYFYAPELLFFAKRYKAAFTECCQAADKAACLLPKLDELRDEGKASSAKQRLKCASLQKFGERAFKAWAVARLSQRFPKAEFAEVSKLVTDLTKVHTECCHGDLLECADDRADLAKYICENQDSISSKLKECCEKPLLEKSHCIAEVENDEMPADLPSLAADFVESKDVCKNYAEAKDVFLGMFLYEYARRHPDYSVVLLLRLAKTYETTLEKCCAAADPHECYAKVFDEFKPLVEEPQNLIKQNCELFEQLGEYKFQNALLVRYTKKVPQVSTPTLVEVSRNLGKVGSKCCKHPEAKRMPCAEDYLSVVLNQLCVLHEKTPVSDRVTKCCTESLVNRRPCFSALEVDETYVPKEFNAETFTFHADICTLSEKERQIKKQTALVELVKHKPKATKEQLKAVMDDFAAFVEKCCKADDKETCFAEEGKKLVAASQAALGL
Listed below: % engagement ALB_C269 values for each entry.
The figure you give is taken to be in %; do not add the unit.

Reference set, count: 2
Item: C=CC(=O)N1C[C@@H](c2ccc(Br)cc2)[C@H]1C(=O)Nc1cccc2cccnc12 [MY-1A] | % engagement ALB_C269: 42.5

GET /value?item= C=CC(=O)N1C[C@H](c2ccc(Br)cc2)[C@@H]1C(=O)Nc1cccc2cccnc12 [MY-1B] &field=% engagement ALB_C269 returns 47.5

Continuing:
Query C=CC(=O)N1C[C@H](c2ccc(Br)cc2)[C@H]1C(=O)Nc1cccc2cccnc12 [MY-3B] yields % engagement ALB_C269 of 79.5

Entry C=CC(=O)N1C[C@H](c2ccc(Br)cc2)[C@H]1C(=O)Nc1cccc2cccnc12 [MY-3A] ; % engagement ALB_C269 = 86

###

% engagement DCTN4_C258 reference
target: DCTN4_C258 (Homo sapiens, UniProt Q9UJW0); construct: endogenous in cells; host or cells: 22Rv1; assay: IA-DTB cysteine engagement; assay type: binding; settings: 22Rv1 cells, 20 μM probe, 1 h, relative to DMSO
Sequence (Q9UJW0 whole entry): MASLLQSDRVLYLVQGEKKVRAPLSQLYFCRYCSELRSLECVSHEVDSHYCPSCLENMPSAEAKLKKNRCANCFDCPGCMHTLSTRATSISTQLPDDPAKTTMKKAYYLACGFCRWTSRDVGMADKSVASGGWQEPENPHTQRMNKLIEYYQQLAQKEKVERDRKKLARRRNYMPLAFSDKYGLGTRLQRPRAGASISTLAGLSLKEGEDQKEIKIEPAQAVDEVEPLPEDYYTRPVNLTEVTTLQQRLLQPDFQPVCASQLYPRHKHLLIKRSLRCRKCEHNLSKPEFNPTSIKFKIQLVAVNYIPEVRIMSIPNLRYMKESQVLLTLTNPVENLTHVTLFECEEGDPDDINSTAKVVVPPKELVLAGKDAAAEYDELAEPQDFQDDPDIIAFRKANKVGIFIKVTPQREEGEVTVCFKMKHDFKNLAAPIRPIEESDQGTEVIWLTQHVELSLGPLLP
Express it in %; write the number only.

// % engagement DCTN4_C258 lookup, compound = C=CC(=O)N1C[C@H](c2ccc(Br)cc2)[C@H]1C(=O)Nc1cccc2cccnc12 [MY-3B] , result: 31.5

Others:
// % engagement DCTN4_C258 lookup, compound = "C=CC(=O)N1C[C@@H](c2ccc(Br)cc2)[C@H]1C(=O)Nc1cccc2cccnc12" , result: 27.5

"C=CC(=O)N1C[C@H](c2ccc(Br)cc2)[C@@H]1C(=O)Nc1cccc2cccnc12" yielded % engagement DCTN4_C258 of 68

The compound listed as C=CC(=O)N1C[C@H](c2ccc(Br)cc2)[C@H]1C(=O)Nc1cccc2cccnc12 [MY-3A] shows % engagement DCTN4_C258 equal to 15.5

###

target: ABHD16A_C205 (Homo sapiens, UniProt O95870); construct: endogenous in cells; host or cells: 22Rv1; assay: IA-DTB cysteine engagement; format: binding; details: 22Rv1 cells, 20 μM probe, 1 h, relative to DMSO
Sequence (O95870 whole entry): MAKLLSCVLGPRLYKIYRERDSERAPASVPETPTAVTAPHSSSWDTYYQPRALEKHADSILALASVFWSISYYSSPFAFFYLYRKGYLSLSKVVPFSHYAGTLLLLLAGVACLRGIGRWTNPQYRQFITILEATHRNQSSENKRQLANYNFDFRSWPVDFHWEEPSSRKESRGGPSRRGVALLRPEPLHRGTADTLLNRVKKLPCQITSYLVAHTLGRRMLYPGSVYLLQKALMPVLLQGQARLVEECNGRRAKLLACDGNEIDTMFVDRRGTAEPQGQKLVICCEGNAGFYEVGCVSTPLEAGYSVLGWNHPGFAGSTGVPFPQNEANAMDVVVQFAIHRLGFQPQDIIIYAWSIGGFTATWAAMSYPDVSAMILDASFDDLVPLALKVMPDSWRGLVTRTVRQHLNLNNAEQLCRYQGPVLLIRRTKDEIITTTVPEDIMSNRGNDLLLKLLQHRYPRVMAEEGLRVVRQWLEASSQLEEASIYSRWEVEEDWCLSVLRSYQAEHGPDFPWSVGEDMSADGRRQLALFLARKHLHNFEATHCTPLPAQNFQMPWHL
Reported values of % engagement ABHD16A_C205 for individual entries
Note: unit % is implicit; provide only the numeric part.

Before answering, review these 3 worked examples.
Tested system ABHD16A_C205 (Homo sapiens, UniProt O95870); % engagement ABHD16A_C205 recorded for C=CC(=O)N1C[C@H](c2ccc(Br)cc2)[C@H]1C(=O)Nc1cccc2cccnc12 [MY-3A] was 73.25

Result for C=CC(=O)N1C[C@H](c2ccc(Br)cc2)[C@H]1C(=O)Nc1cccc2cccnc12 [MY-3B] , tested on ABHD16A_C205 (Homo sapiens, UniProt O95870), % engagement ABHD16A_C205: 77.25

% engagement ABHD16A_C205 for ABHD16A_C205 (Homo sapiens, UniProt O95870) with input "C=CC(=O)N1C[C@H](c2ccc(Br)cc2)[C@@H]1C(=O)Nc1cccc2cccnc12" equals 80.25

More entries:
The measured % engagement ABHD16A_C205 that "C=CC(=O)N1C[C@@H](c2ccc(Br)cc2)[C@H]1C(=O)Nc1cccc2cccnc12" showed for ABHD16A_C205 (Homo sapiens, UniProt O95870) is 67.75

###

Target: GPAT4_C325 (Homo sapiens, UniProt Q86UL3)
Construct: endogenous in cells; host or cells: 22Rv1
Sequence (Q86UL3 38-456): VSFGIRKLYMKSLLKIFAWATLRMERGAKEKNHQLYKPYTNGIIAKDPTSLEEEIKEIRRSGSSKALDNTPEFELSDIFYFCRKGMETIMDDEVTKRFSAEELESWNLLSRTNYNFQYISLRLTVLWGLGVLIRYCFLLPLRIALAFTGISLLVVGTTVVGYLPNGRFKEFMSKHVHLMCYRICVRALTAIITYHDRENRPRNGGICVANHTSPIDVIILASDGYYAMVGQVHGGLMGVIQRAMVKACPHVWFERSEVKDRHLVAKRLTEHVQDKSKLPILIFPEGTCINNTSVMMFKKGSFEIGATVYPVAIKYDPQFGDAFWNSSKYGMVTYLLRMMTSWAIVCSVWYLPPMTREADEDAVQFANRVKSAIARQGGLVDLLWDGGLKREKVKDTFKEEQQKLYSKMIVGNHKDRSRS
Assay: IA-DTB cysteine engagement
Type: binding
Settings: 22Rv1 cells, 20 μM probe, 1 h, relative to DMSO
VALUE TYPE: % engagement GPAT4_C325

The examples below pair each entry with its known result.
% engagement GPAT4_C325 recorded for this compound, C=CC(=O)N1C[C@H](c2ccc(Br)cc2)[C@H]1C(=O)Nc1cccc2cccnc12 [MY-3A] , is 67.25%

The recorded % engagement GPAT4_C325 for entry C=CC(=O)N1C[C@H](c2ccc(Br)cc2)[C@H]1C(=O)Nc1cccc2cccnc12 [MY-3B] equals 93.75%

Continuing:
% engagement GPAT4_C325 reported for this compound "C=CC(=O)N1C[C@@H](c2ccc(Br)cc2)[C@H]1C(=O)Nc1cccc2cccnc12" : 83.25%

In plain terms, "C=CC(=O)N1C[C@H](c2ccc(Br)cc2)[C@@H]1C(=O)Nc1cccc2cccnc12" has a documented % engagement GPAT4_C325 of 80%

###

Form field: % engagement NT5DC1_C119 (one value per entry).
Target: NT5DC1_C119 (Homo sapiens, UniProt Q5TFE4)
Construct: endogenous in cells; host or cells: 22Rv1
Sequence (Q5TFE4 1-455): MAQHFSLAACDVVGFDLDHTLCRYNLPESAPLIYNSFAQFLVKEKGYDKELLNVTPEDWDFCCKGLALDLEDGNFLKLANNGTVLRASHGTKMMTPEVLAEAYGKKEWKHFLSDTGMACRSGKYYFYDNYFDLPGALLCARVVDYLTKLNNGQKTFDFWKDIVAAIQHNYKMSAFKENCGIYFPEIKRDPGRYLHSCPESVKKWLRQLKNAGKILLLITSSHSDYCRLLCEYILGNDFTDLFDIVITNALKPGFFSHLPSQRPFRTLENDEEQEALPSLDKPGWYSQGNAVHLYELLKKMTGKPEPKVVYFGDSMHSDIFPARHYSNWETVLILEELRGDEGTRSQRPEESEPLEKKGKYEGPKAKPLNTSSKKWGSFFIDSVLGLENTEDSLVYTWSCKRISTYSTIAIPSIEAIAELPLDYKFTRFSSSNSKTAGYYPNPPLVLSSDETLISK
Assay: IA-DTB cysteine engagement
Type: binding
Settings: 22Rv1 cells, 20 μM probe, 1 h, relative to DMSO
Please state the figure in %; there is no need to write the unit.

% engagement NT5DC1_C119 of "C=CC(=O)N1C[C@@H](c2ccc(Br)cc2)[C@H]1C(=O)Nc1cccc2cccnc12" , assay on NT5DC1_C119 (Homo sapiens, UniProt Q5TFE4), is 49

Observed % engagement NT5DC1_C119 on NT5DC1_C119 (Homo sapiens, UniProt Q5TFE4), entry "C=CC(=O)N1C[C@H](c2ccc(Br)cc2)[C@@H]1C(=O)Nc1cccc2cccnc12" , equals 63.25

Short answer on NT5DC1_C119 (Homo sapiens, UniProt Q5TFE4) for C=CC(=O)N1C[C@H](c2ccc(Br)cc2)[C@H]1C(=O)Nc1cccc2cccnc12 [MY-3B] , % engagement NT5DC1_C119: 79.5

***
Reported NT5DC1_C119 (Homo sapiens, UniProt Q5TFE4) % engagement NT5DC1_C119 for item C=CC(=O)N1C[C@H](c2ccc(Br)cc2)[C@H]1C(=O)Nc1cccc2cccnc12 [MY-3A] was 93.5

Measured values drawn from patent US20250034216A1 for this set.
